test system: CAL-120, human breast adenocarcinoma cells; assay: Proliferation assay CAL-120 (crystal violet, 4 days); assay type: cell-based; conditions: Homo sapiens, CAL-120, 96 h, CAL-120 cells, median, read-out: Prolif-CAL-120, IC50-[mol/l] (median)
pIC50: −log10 of the molar value.
Readout kind: pIC50

In [3]: df
Out[3]:
                                    molecule                               target_desc  test_result
 0  Clc1ccc2[nH]c(CNc3nc(N4CCOCC4)nc4c(Br)cnn34)nc2c1  CAL-120, human breast adenocarcinoma cells         8.81
 1  N#Cc1cccc(-c2c[nH]c(CNc3nc(N4CCOCC4)nc4c(Br)cnn34)n2)c1  CAL-120, human breast adenocarcinoma cells         8.75
 2  CN1CCN(c2nc(NCc3nc4c(F)cccc4[nH]3)n3ncc(C4CC4)c3n2)CC1  CAL-120, human breast adenocarcinoma cells         8.38
 3  c1ccc2[nH]c(CNc3nc(N4C[C@@H]5CCCN[C@@H]5C4)nc4c(C5CC5)cnn34)nc2c1  CAL-120, human breast adenocarcinoma cells         8.37
 4  c1ccc2[nH]c(CNc3nc(N4CCNCC4)nc4c(C5CC5)cnn34)nc2c1  CAL-120, human breast adenocarcinoma cells         8.01
 5  c1ccc(-c2cnn3c(NCc4nc5ccccc5[nH]4)nc(N4CCOCC4)nc23)cc1  CAL-120, human breast adenocarcinoma cells         6.90
 6  CCC1COCCN1c1nc(NCc2nc3ccccc3[nH]2)n2ncc(Br)c2n1 (centres unmarked)  CAL-120, human breast adenocarcinoma cells         7.33
 7  Fc1ccc2[nH]c(CNc3nc(N4CCOCC4)nc4c(Br)cnn34)nc2c1  CAL-120, human breast adenocarcinoma cells         8.39
 8  COC(C)(C)CNc1nc(NCc2nc3ccccc3[nH]2)n2ncc(Br)c2n1  CAL-120, human breast adenocarcinoma cells         7.01
 9  Brc1cnn2c(NCc3nc4ccccc4[nH]3)nc(N3CCN4CCC[C@@H]4C3)nc12  CAL-120, human breast adenocarcinoma cells         6.79
10  Fc1ccc2[nH]c(CNc3nc(N4CCOCC4)nc4c(CC(F)(F)F)cnn34)nc2c1F  CAL-120, human breast adenocarcinoma cells         8.25
11  FC(F)(F)Oc1ccccc1-c1cnc(CNc2nc(N3CCOCC3)nc3c(Br)cnn23)[nH]1  CAL-120, human breast adenocarcinoma cells         7.48
12  C[C@H]1CN(c2nc(NCc3nc4ccccc4[nH]3)n3ncc(Br)c3n2)CCN1C  CAL-120, human breast adenocarcinoma cells         7.36
13  Fc1ccc(-c2cnc(CNc3nc(N4CCOCC4)nc4c(Br)cnn34)[nH]2)cc1  CAL-120, human breast adenocarcinoma cells         6.64
14  Brc1cnn2c(NCc3nc4ccccc4[nH]3)nc(N3C[C@H]4CC[C@@H]3CN4)nc12 (single isomer, unassigned)  CAL-120, human breast adenocarcinoma cells         8.15
15  Brc1cnn2c(NCc3nc4ccccc4[nH]3)nc(N3CCN(C4CC4)CC3)nc12  CAL-120, human breast adenocarcinoma cells         6.35
16  O[C@H]1C[C@@H](Nc2nc(NCc3nc4ccccc4[nH]3)n3ncc(Br)c3n2)C1  CAL-120, human breast adenocarcinoma cells         7.50
17  FC(F)Cc1cnn2c(NCc3nc4ccccc4[nH]3)nc(N3CCOCC3)nc12.O=C(O)C(F)(F)F  CAL-120, human breast adenocarcinoma cells         7.83
18  C[C@H]1COCCN1c1nc(NCc2nc3ccccc3[nH]2)n2ncc(Br)c2n1  CAL-120, human breast adenocarcinoma cells         8.50
19  Cc1ccc2[nH]c(CNc3nc(N4C[C@@H]5CCCN[C@@H]5C4)nc4c(Br)cnn34)nc2c1  CAL-120, human breast adenocarcinoma cells         8.99
20  Fc1cc2nc(CNc3nc(N4CC5CCC(C4)N5)nc4c(Br)cnn34)[nH]c2cc1F  CAL-120, human breast adenocarcinoma cells         8.66
21  Clc1cc2nc(CNc3nc(N4CCOCC4)nc4c(Br)cnn34)[nH]c2cc1Cl  CAL-120, human breast adenocarcinoma cells         8.21
22  N#Cc1cccc(-c2nnc(CNc3nc(N4CCOCC4)nc4c(Br)cnn34)[nH]2)c1  CAL-120, human breast adenocarcinoma cells         8.20
23  CCc1cnn2c(NCc3nc4c(OC)cccc4[nH]3)nc(N3CCOCC3)nc12  CAL-120, human breast adenocarcinoma cells         7.88
24  CN1CCN(c2nc(NCc3nc4c(F)c(F)ccc4[nH]3)n3ncc(CC(F)(F)F)c3n2)CC1  CAL-120, human breast adenocarcinoma cells         7.96
25  Fc1ccc2[nH]c(CNc3nc(N4CCOCC4)nc4c(C5CC5)cnn34)nc2c1F  CAL-120, human breast adenocarcinoma cells         8.61
26  CN1CCN(c2nc(NCc3nc4cc(F)c(F)cc4[nH]3)n3ncc(Br)c3n2)CC1  CAL-120, human breast adenocarcinoma cells         8.58
27  CN[C@@H]1CCN(c2nc(NCc3nc4ccccc4[nH]3)n3ncc(Br)c3n2)C1  CAL-120, human breast adenocarcinoma cells         8.16
28  COc1cccc2[nH]c(CNc3nc(N4CCN(C)CC4)nc4c(C5CC5)cnn34)nc12  CAL-120, human breast adenocarcinoma cells         8.30
29  N[C@@H]1CN(c2nc(NCc3nc4ccccc4[nH]3)n3ncc(Br)c3n2)CC12CC2  CAL-120, human breast adenocarcinoma cells         8.18
30  CN1CCN(c2nc(NCc3nc4cc(F)c(F)cc4[nH]3)n3ncc(C4CC4)c3n2)CC1  CAL-120, human breast adenocarcinoma cells         8.09
31  Fc1ccc2[nH]c(CNc3nc(N4CCOCC4)nc4c(C5CCCC5)cnn34)nc2c1F  CAL-120, human breast adenocarcinoma cells         7.22

====

molecular target: CDK12/CycK (Homo sapiens, UniProt Q9NYV4); assay: CDK12/CycK high ATP kinase assay (TR-FRET, 2 mM ATP); conditions: 2 mM ATP (high ATP); median; read-out: CDK12/CyclinK, 2 mM ATP (high ATP), IC50-[mol/l] (median)
Sequence (Q9NYV4 with tags, fused parts or gaps): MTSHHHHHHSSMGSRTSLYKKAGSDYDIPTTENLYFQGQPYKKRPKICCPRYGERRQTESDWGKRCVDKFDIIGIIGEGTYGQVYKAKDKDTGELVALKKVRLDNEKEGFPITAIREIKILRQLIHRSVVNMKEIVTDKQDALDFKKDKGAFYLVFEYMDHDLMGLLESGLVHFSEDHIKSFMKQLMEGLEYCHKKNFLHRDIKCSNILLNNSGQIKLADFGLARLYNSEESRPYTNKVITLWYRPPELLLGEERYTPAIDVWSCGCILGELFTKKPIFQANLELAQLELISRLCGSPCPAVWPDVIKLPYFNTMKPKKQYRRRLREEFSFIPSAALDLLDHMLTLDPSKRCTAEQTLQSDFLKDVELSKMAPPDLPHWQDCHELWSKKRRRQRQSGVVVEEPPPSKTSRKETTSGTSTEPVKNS
Sequence (O75909 1-300 partner limits assumed): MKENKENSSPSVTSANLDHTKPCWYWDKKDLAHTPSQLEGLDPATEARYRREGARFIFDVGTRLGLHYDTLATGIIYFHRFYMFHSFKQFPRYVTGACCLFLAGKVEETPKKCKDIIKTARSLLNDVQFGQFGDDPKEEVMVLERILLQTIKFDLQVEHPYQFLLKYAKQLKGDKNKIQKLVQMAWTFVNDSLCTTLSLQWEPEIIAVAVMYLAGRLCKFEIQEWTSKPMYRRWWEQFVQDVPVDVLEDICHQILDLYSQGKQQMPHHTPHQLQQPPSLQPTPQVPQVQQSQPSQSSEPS
Readout kind: IC50 (µM)

In [3]: df
Out[3]:
                                    molecule  bound_sign  test_result
 0  Fc1cccc2[nH]c(CNc3nc(N4CCOCC4)nc4c(Cl)cnn34)nc12           =         1.43
 1  OC1CCCN(c2nc(NCc3nc4ccccc4[nH]3)n3ncc(Br)c3n2)C1 (racemic)           =         6.94
 2  CCNc1nc(NCc2nnc(-c3ccccc3)[nH]2)n2ncc(C(C)C)c2n1           >         5.71
 3  Fc1ccc2[nH]c(CNc3nc(N4CCNCC4)nc4c(C5CC5)cnn34)nc2c1F           =         1.19
 4  [O-][S+]1CCN(c2nc(NCc3nc4ccccc4[nH]3)n3ncc(Br)c3n2)CC1           =         3.72
 5  CN1CCN(c2nc(NCc3nc4c(F)c(Cl)ccc4[nH]3)n3ncc(C4CC4)c3n2)CC1           =         5.25
 6  Clc1cc2nc(CNc3nc(N4CCOCC4)nc4c(-c5cscn5)cnn34)[nH]c2cc1Cl           >           20
 7  C[C@@H]1CN(c2nc(NCc3nc4cc(F)ccc4[nH]3)n3ncc(C4CC4)c3n2)C[C@H](C)N1           =           11
 8  COc1ccccc1-c1nnc(CNc2nc(N3CCOCC3)nc3c(Br)cnn23)[nH]1           >           20
 9  Fc1cccc2[nH]c(CNc3nc(N4CCOCC4)nc4c(C(F)(F)F)cnn34)nc12           =       0.0395
10  Brc1cnn2c(NCc3nc4ccccc4[nH]3)nc(N3CCN(C4CC4)CC3)nc12           >           20
11  Cc1ccnc2[nH]c(CNc3nc(N4CCOCC4)nc4c(C(C)C)cnn34)nc12           =         3.32
12  COc1cccc2nc(CNc3nc(N4CCOCC4)nc4c(-c5ccnnc5)cnn34)[nH]c12.O=C(O)C(F)(F)F           =         3.95
13  Fc1ccc2[nH]c(CNc3nc(N4CCOCC4)nc4c(Cl)cnn34)nc2c1F           =         1.15
14  CN1CCN(c2nc(NCc3nc4c(F)c(F)ccc4[nH]3)n3ncc(-c4nccs4)c3n2)CC1           >           20
15  Fc1ccc2[nH]c(CNc3nc(N4C[C@@H]5C[C@H]4CO5)nc4c(C5CC5)cnn34)nc2c1           >         19.6
16  C[C@@H]1COCCN1c1nc(NCc2nc3ccccc3[nH]2)n2ncc(Br)c2n1           =         5.31
17  CCN(C)c1nc(NCc2nc3ccccc3[nH]2)n2ncc(Br)c2n1           =         7.54
18  Fc1ccc(-c2nnc(CNc3nc(N4CCOCC4)nc4c(Br)cnn34)[nH]2)c(F)c1           >         5.71
19  CCNc1nc(NCc2ncc(-c3ccccc3)[nH]2)n2ncc(C(C)C)c2n1           >         5.71
20  CC(C)c1cnn2c(NCc3ncc(-c4ccccc4)[nH]3)nc(N3CCCCC3)nc12           >           20
21  Fc1cccc(-c2cnn3c(NCc4nc5ccccc5[nH]4)nc(N4CCOCC4)nc23)c1           >         57.1
22  CN1CCN(c2nc(NCc3nc4c(F)c(F)ccc4[nH]3)n3ncc(Br)c3n2)CC1           =         7.01
23  Cc1cccc2[nH]c(CNc3nc(N4CCOCC4)nc4c(Br)cnn34)nc12           =         2.66
24  CC1(C)CN(c2nc(NCc3nc4ccccc4[nH]3)n3ncc(C4CC4)c3n2)CCO1           =         12.6
25  CCc1cnn2c(NCc3nc4c(F)c(F)ccc4[nH]3)nc(N3CCOCC3)nc12           =          2.3
26  CN(CC(C)(C)O)c1nc(NCc2nc3cc(Cl)c(Cl)cc3[nH]2)n2ncc(Br)c2n1           =         0.35
27  Fc1cc2nc(CNc3nc(N4CCOCC4)nc4c(Br)cnn34)[nH]c2cc1F           =         2.22
28  Fc1cccc2[nH]c(CNc3nc(N4CC5CCC(C4)N5)nc4c(Cl)cnn34)nc12           =         3.31
29  COc1ccc2[nH]c(CNc3nc(N4CCN(C)CC4)nc4c(Br)cnn34)nc2c1           =         9.61
30  Fc1ccc2[nH]c(CNc3nc(N4CCOCC4)nc4c(C5CCC5)cnn34)nc2c1F           =         2.23
31  CC(C)c1cnn2c(NCc3nnc(-c4ccccc4)[nH]3)nc(N(C)CC(C)(C)O)nc12           =         4.67
32  Brc1cnn2c(NCc3nc4ccccc4[nH]3)nc(N3C[C@H]4CNC[C@H]4C3)nc12           =         18.3
